Target: EDG-1/S1P1 receptor (Homo sapiens)
Sequence (P21453 whole entry): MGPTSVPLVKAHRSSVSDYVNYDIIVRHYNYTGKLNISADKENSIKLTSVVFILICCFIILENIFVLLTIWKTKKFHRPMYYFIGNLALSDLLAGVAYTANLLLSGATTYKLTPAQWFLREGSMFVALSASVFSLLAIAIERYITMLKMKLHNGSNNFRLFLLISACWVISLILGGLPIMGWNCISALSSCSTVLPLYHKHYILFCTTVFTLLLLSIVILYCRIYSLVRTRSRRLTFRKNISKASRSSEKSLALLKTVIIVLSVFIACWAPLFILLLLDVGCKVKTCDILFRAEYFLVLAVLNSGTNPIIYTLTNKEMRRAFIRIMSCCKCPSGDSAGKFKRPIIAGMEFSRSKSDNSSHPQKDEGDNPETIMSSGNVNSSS
Assay: In Vitro Cell Based Receptor Activation Assay-Transfluor Assay
Conditions: EDG-1 Transfluor U2OS WT Clone #37 cells; beta-arrestin GFP relocalization in presence of S1P
Procedure: This cell-based assay was designed to assess the ability of small molecule antagonists to inhibit activation of the GPCR S1P1 in the presence of its cognate ligand S1P. […] Using a high content screening approach (Cellomics Arrayscan), receptor activity was measured by assessment of the relocalization of beta-arrestin GFP in response to stimulation of EDG-1 by S1P. […] Plates were then sealed and analysed on the Cellomics Arrayscan using the GPCR signalling algorithm. […]
recorded.endpoint: EC50 (nM)
Report as a plain number; the unit nM is understood.

Noted for Cc1cnc(C(Cc2ccccc2)NS(=O)(=O)c2ccc(Cl)cc2)n1C (stereo not shown) : its EC50 reads 2120
